- experimental system: Abeta 1-42 globulomer (Homo sapiens, UniProt P05067)
- Construct: beta amyloid (1-42) was monomerized with incubation in hexafluoroisopropanol
- experimental details: Globulomer capture assay in CSF (Example 6)
- Type: binding
- measurement parameters: 1 ng/ml average reading; ratio of 42 to 40
readout name: 42:40 (signal:noise ratio)

// solved cases for 42:40 (signal:noise ratio) follow
| substance | experimental system | meas value |
| --- | --- | --- |
| AKKKKK | Abeta 1-42 globulomer (Homo sapiens, UniProt P05067) | 2.5 |
| FKFNLFSG | Abeta 1-42 globulomer (Homo sapiens, UniProt P05067) | 2.4 |
| DFKLNFKF | Abeta 1-42 globulomer (Homo sapiens, UniProt P05067) | 2 |

Here is the next item to consider.
Prompt: // 42:40 (signal:noise ratio) lookup, key: IRYVTHQYILWP
Response: 3.2
